tested on: ACHN; assay: NCI tumour cell line growth inhibition, 48 h
Active and inactive are the calls of the source. Rule as the data show it: active = GI50 up to about 1.1 µM and inactive = higher.
experimental.readout: GI50

Previously resolved entries follow.
{"columns": ["compound", "experimental.readout", "result"],
 "data": [
  ["Cc1nn(-c2ccccn2)c2c1C(SC#N)=C(C=O)CC2", "GI50", "16.3 µM (inactive)"],
  ["CC(=O)OC1[C@@H](OC(C)=O)CN(OCc2ccccc2)C[C@H]1OC(C)=O (some centres undefined)", "GI50", "> 100 µM (inactive)"],
  ["CCOc1ccc(O)cc1[P+](c1ccccc1)(c1ccccc1)c1ccccc1", "GI50", "16.2 µM (inactive)"]
]}

The compound CCOC(=O)C(CO)c1nc2c([nH]c1=O)c(=O)n(C)c(=O)n2C (centres undefined) , tested on ACHN, showed GI50 of > 100 µM (inactive)

// provenance: ChEMBL document CHEMBL1201862
